Entries and their apparent KD of MS2 coat protein
Tested on: MS2 coat protein
assay_remarks: apparent KD of MS2 coat protein; higher = weaker reporter binding
measurement_context: Eterna round: R107; input ligand: theophylline 2 mM
Express it in µM; write the number only.

Some sequences with known apparent KD of MS2 coat protein results, for comparison:
GCUAUGGCUAGAAGGAGCGUGAAUUUCAGAAAACAUGAGGAUCACCCAUGUAAGGAUAUGACACAGGUAGGUCGCUAGCCAUAGC [SSAB NP+V+V2 #19] ... 0.0125
GGCGCUGCGUCGGCCGCCACUAGUGGGUAAUGGGUGUACAUGAGGAUCACCCAUGUAUUUUGGCCUAGGACCGGGACGUGGCGCC [Oxen] ... 0.57
ACGUAAUGCAGAAGGAGCGUCUGAUUUUAACAUGAGGAUCACCCAUGUAAUAUUUAUGGUAGACAGGUAGGUCGCUGAAGUACGA [JR_ExcArginiB_Sub002] ... 0.0152

# input Query (sequence): UUAACAUGAGGAUCACCCAUGUUUGAUGAAGGAGCGACCAGAGGGUCAGGUAGGUCGCAUCACAUGAGGAUCACCCAUGUCGCCC [DOUBLE!!! :-D #13] ; field requested: apparent KD of MS2 coat protein
# output 0.0258

# input Query (sequence): ACAUGAGGAUCACCCAUGUACAUGAGGGAAGGAGCGGUACAUGAGCCAGGUAGGUCGCCCAACAGCAAAUGGCAUGUACAACGGA [hhnmullin] ; field requested: apparent KD of MS2 coat protein
# output 0.0605

# input Query (sequence): GAGUAGAGGACGGCCGCCACUAAACAUGAGGAUCACCCAUGUCGUGAUCCGUUACCUAGGGUAGAUAGGACCGGGUCAUGUAGUC [Exclusion Tryptophan B GF 17] ; field requested: apparent KD of MS2 coat protein
# output 0.0847

# input Query (sequence): GAUUUUACAAAAGUAAAAUCAGUGGGUGAACGAGGACCGGUACGGCCGCCACUCGGACAUGAGGAUCACCCAUGUCCAUGUGAAA [AstrosExyTryA#21] ; field requested: apparent KD of MS2 coat protein
# output 0.0206

# input Query (sequence): CAUAUAUAUAGAAGGAGCGACAUGAGGAUCACCCAUGUCUACCACGUCGAAAGACGCUCAUGUCAGGUAGGUCGCUAUAUAUAUG [Astros-Eli-mod2] ; field requested: apparent KD of MS2 coat protein
# output 0.198

# input Query (sequence): AAAAGAGGUGGAAGGAGCGGGAGACAUGAGGAUCACCCAUGUGAUGUGACGAAAGGGUCAGCCCAGGUAGGUCGCCAUGUCGAAA [yuyymullin] ; field requested: apparent KD of MS2 coat protein
# output 0.134

# input Query (sequence): GGGUACAUCGCGGCCGCCACUUGUGUAAAUACAUGAGGAUCACCCAUGUCGAUGGAGACAUCGGAGAGGACCGGGUGAUGUACCG ; field requested: apparent KD of MS2 coat protein
# output 0.0965

# input Query (sequence): UACAUGAGGAUCACCCAUGUAUUGCCGGUACGAGGACCGGUACGGCCGCCACUCGGGACAUGAGGAUCACCCAUGUGCUGCUAUU [Same State Trypophan A GF 23] ; field requested: apparent KD of MS2 coat protein
# output 0.0424
